assay.details: recombinant UMI read abundance after kanamycin selection (control-corrected) (log10(CPM+1)); higher = more efficient recombination; extreme values may be limits of the assay; sequences stand for … in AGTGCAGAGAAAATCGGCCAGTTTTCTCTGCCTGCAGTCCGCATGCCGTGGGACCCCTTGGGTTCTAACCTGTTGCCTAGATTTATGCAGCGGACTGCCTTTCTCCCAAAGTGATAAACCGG…AGGTTGGTTTCACT; site = the 11-nt donor
# binarize recombinant UMI read abundance (log10): threshold 0.02 inclusive, high side true (1), low side false (0)

sequence.record | answer.label
GTAGTATCATGGACCGGTTTTCCCGGTAATCCGTATTTGGC (site CTAGTATCTGT) | true (1)
AGGTTCCCATGGACCGGTTTTCCCGGTAATCCGTATTTGTC (site AGGTTCCCTAA) | false (0)
TTCCTAGCATGGACCGGTTTTCCCGGTAATCCGTATTTGAA (site TTCCTAGCTTT) | false (0)
AACCTCTCATGGACCGGTTTTCCCGGTAATCCGTATTTGCC (site AACCTCTCTGG) | true (1)
GGCCGATCATGGACCGGTTTTCCCGGTAATCCGTATTTGCG (site GGCCGATCTCG) | true (1)
GATAGACCATGGACCGGTTTTCCCGGTAATCCGTATTTGGC (site GATAGACCTGC) | false (0)
ACGCGAACATGGACCGGTTTTCCCGGTAATCCGTATTTGTC (site ACCCGAACTGA) | false (0)
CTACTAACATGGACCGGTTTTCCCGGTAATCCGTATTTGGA (site CTACTACCTTC) | false (0)
AATAGCACATGGACCGGTTTTCCCGGTAATCCGTATTTGGC (site AATAGCACTGC) | true (1)
GCGCTCACATGGACCGGTTTTCCCGGTAATCCGTATTTGAT (site GCGCTCACTAT) | true (1)
ACCTCGACATGGACCGGTTTTCCCGGTAATCCGTATTTGGG (site ACCTAGACTCC) | true (1)
TTTACCCCATGGACCGGTTTTCCCGGTAATCCGTATTTGCT (site TTTACCCCTAG) | false (0)
TGCTACGCATGGACCGGTTTTCCCGGTAATCCGTATTTGGT (site TGCTATGCTAC) | false (0)
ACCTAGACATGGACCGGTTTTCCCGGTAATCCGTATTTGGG (site ACCTAGACTCG) | true (1)
CACCCTACATGGACCGGTTTTCCCGGTAATCCGTATTTGAG (site CTCCCTACTCT) | true (1)
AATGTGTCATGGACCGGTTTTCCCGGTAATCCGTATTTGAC (site AATGTGACTGT) | false (0)
CTTGCGGCATGGACCGGTTTTCCCGGTAATCCGTATTTGCT (site GTTGCGGCTAG) | false (0)
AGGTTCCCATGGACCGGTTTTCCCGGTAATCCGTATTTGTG (site AGGTTGCCTCA) | true (1)

---

assay.details: recombinant barcode read abundance after kanamycin selection (control-corrected) (log10(CPM+1)); higher = more efficient recombination; sequences stand for … in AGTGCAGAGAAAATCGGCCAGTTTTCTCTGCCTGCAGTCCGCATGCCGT…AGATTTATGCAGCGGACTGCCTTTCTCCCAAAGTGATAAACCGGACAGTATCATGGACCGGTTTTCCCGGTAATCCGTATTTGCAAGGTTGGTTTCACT; site = the 11-nt target
Recorded recombinant barcode read abundance (log10) values for a group of sequences are listed next.
observation.type: recombinant barcode read abundance (log10)

sequence.record | endpoint.value
TCCCTATCTTGGGTTCTAACCTGTTGCCT (site TACCTATCTAG) | 0.223
CATGCGACTTGGGTTCTAACCTGTTGCGT (site CATGCGACTAC) | 0.472
CATCCGGCTTGGGTTCTAACCTGTTGCCT (site CATCCGACTAG) | 0.317
GCCATCACTTGGGTTCTAACCTGTTGCCT (site GCCATTACTAG) | 0.12
GTCGTCACTTGGGTTCTAACCTGTTGCCT (site GTCGTCGCTAG) | 0.15
AGGGGAGCTTGGGTTCTAACCTGTTGCGG (site ATGGGAGCTTC) | 0.0749
CATCGTACTTGGGTTCTAACCTGTTGCAT (site CATCGTACTAT) | 0.00546
AGCTTTGCTTGGGTTCTAACCTGTTGCCT (site AGCTTTGCTAG) | 0.0693
ACATTTCCTTGGGTTCTAACCTGTTGCCT (site ATATTTCCTAG) | 0.58
TGCTGTTCTTGGGTTCTAACCTGTTGCCT (site TGCTGTTCTAG) | 0.187
TGTATGTCTTGGGTTCTAACCTGTTGCCT (site CGTATGTCTAG) | 0.529
GCACGACCTTGGGTTCTAACCTGTTGCCT (site GCACTACCTAG) | 0
GGTGGGTCTTGGGTTCTAACCTGTTGCTT (site GGTGGGTCTAG) | 0.929
CTAGTTACTTGGGTTCTAACCTGTTGCCT (site CTAGTTACTAG) | 1.11
ACAGAGACTTGGGTTCTAACCTGTTGCTA (site ACAGAGACTGT) | 0.121
CTGGCCACTTGGGTTCTAACCTGTTGCCT (site CGGGCCACTAG) | 0.0825
CTGGCGTCTTGGGTTCTAACCTGTTGCCT (site CTGGCGTCTAG) | 1.1
GTCGTCCCTTGGGTTCTAACCTGTTGCCT (site GTCGTCCCTAG) | 0.315
TAGTACCCTTGGGTTCTAACCTGTTGCAT (site TAGTACCCTGT) | 0.0568
GGTCAAACTTGGGTTCTAACCTGTTGCCT (site GGTCGAACTAG) | 0.109
GTTCCAGCTTGGGTTCTAACCTGTTGCCT (site GTTCCAGCTAG) | 0.792
GTAGGGACTTGGGTTCTAACCTGTTGCCT (site GCAGGGACTAG) | 0.806
CTGATGTCTTGGGTTCTAACCTGTTGCCA (site CTGTTGTCTTG) | 0.136
GTAAGTACTTGGGTTCTAACCTGTTGCTT (site GTAAGCACTAA) | 0.233
TCGTACCCTTGGGTTCTAACCTGTTGCAA (site AAAATATCTAG) | 0.083
CGCTGGCCTTGGGTTCTAACCTGTTGCTT (site CGCTGCCCTAA) | 0.112
AGACGTCCTTGGGTTCTAACCTGTTGCGT (site AGACGTCCTAC) | 2.51
AGGTCCTCTTGGGTTCTAACCTGTTGCAT (site AGGTCCTCTAG) | 0.707
CGGCATACTTGGGTTCTAACCTGTTGCCT (site CCGCATACTAG) | 0.0245
TTGTAAGCTTGGGTTCTAACCTGTTGCCG (site TTGTAAGCTCG) | 0.653
CTTCGTCCTTGGGTTCTAACCTGTTGCAT (site CTTCGTCCTAA) | 0.0066
CCGCTACCTTGGGTTCTAACCTGTTGCCT (site CAGCTACCTAG) | 0.109
AACATACCTTGGGTTCTAACCTGTTGCCT (site ATCATTCCTAG) | 0.564
CCTACATCTTGGGTTCTAACCTGTTGCCT (site CCTACACCTAG) | 0.115
CGATCCACTTGGGTTCTAACCTGTTGCTG (site CGATACACTCG) | 0.16
AATAAGACTTGGGTTCTAACCTGTTGCCA (site AATAAGACTTG) | 0.65
ACGTGAACTTGGGTTCTAACCTGTTGCCT (site ACATGAACTAG) | 0.532
ATTGCTCCTTGGGTTCTAACCTGTTGCTT (site GGTGCTCCTAA) | 0.722
AGTGGACCTTGGGTTCTAACCTGTTGCCC (site AGTGGACCTGG) | 1.86
TATTTCTCTTGGGTTCTAACCTGTTGCCT (site GATTTCTCTAG) | 0.0942
TAGGATCCTTGGGTTCTAACCTGTTGCGA (site ACCCGCTCTAG) | 0.205
ATGTCCTCTTGGGTTCTAACCTGTTGCCT (site ATGACCTCTAG) | 0.145
